Experimental System: Glycine N-methyltransferase (Homo sapiens)
Method Notes: Primary Screen for Target Class Profiling of Small Molecule Inhibitors of Methyltransferases; also: % is scaled to controls: 0 for no effect and ±100 for the full control effect
Measurement Parameters: purified enzyme, MTase-Glo SAH luminescence; measured here: GNMT inhibition; at 40 µM; stronger effect = lower value
About 970 (3.9%) of roughly 25,000 compounds were called active. Another 8% or so got no clear call; they are omitted. Only a selection was taken, and actives are over-represented in it overall.
Property Measured: activity change, negative = inhibition (%)

{"columns": ["Compound", "Experimental System", "Observed Result"],
 "data": [
  ["CCOC(=O)CC1(NC(=O)N2CCn3cccc3C2Cc2ccccc2)CCCCC1 (stereo not given)", "Glycine N-methyltransferase (Homo sapiens)", -7.26],
  ["CSc1cccc(CN(C)Cc2cc3n(n2)CCNC3)c1", "Glycine N-methyltransferase (Homo sapiens)", -1.46],
  ["Cc1cnc(C2CCC2)n1C1CCN(C(=O)CCC2CCCC2)CC1", "Glycine N-methyltransferase (Homo sapiens)", -2.95],
  ["Cc1cnc(-c2ccccc2)n1CCNC(=O)CCC1CCCC1", "Glycine N-methyltransferase (Homo sapiens)", -4.13],
  ["O=C(C1CC1)N1CCn2c(nn(-c3ccc(F)cc3)c2=O)C1", "Glycine N-methyltransferase (Homo sapiens)", -3.41],
  ["COc1ccc(CCN2C(=O)c3ccc(-c4ccco4)n3CC2(C)C(=O)NCc2ccc(Cl)cc2)cc1OC (stereo not given)", "Glycine N-methyltransferase (Homo sapiens)", -6.96],
  ["CC(C)Cn1c(=O)c2ccccc2n2c(CCC(=O)N3CCN(c4cccc(Cl)c4)CC3)nnc12", "Glycine N-methyltransferase (Homo sapiens)", -27.4],
  ["CCOC(=O)c1cc(Nc2ccc(C(C)=O)cc2)c2cc(Cl)ccc2n1", "Glycine N-methyltransferase (Homo sapiens)", -4.22],
  ["CNC(=O)c1ccccc1Nc1nc(Nc2ccc(N3CCOCC3)cc2OC)ncc1Cl", "Glycine N-methyltransferase (Homo sapiens)", -17.4],
  ["CC(C)n1c(=O)c2ccc(C(=O)NC3CCCCC3)cc2n2c(=O)n(CC(=O)NC3CCCCC3)nc12", "Glycine N-methyltransferase (Homo sapiens)", -0.578],
  ["COc1cc(NC(=O)Nc2cccc(CNC(=O)O[C@H]3CCOC3)c2)ccc1-c1cnco1", "Glycine N-methyltransferase (Homo sapiens)", -16.2],
  ["O=C(CCc1nnc2ccc(NCCCN3CCCC3=O)nn12)NCc1ccccc1Cl", "Glycine N-methyltransferase (Homo sapiens)", 1.96],
  ["CN1CCCC1Cc1c[nH]c2ccc(CCS(=O)(=O)c3ccccc3)cc12 (stereo not given)", "Glycine N-methyltransferase (Homo sapiens)", -2.16],
  ["CC(C)(C)c1ccc(C(=O)Nc2cc(Cl)c(Br)cc2C(=O)O)cc1", "Glycine N-methyltransferase (Homo sapiens)", -49.9],
  ["Cn1nccc1C(=O)N1CCC(Cc2nc(C3CC3)n[nH]2)C1 (stereo not given)", "Glycine N-methyltransferase (Homo sapiens)", -3.99],
  ["CC(C)(C)c1ccc(S(=O)(=O)NCc2ccc(C(=O)Nc3cccnc3)cc2)cc1", "Glycine N-methyltransferase (Homo sapiens)", -3.93],
  ["CN(CC(=O)N1CCC2(CCNCC2)CC1)Cc1cccnc1", "Glycine N-methyltransferase (Homo sapiens)", -3.63],
  ["C[C@@H]1C[C@H]2O[C@@]3(O[C@@H]2C(C)(C)O)C(O)[C@@]2(C)C4CCC5C(C)(C)[C@@H](O[C@H]6OC[C@H](O)[C@@H](O)[C@@H]6O)CC[C@@]56C[C@@]46CC[C@]2(C)C13 (stereo not given in full)", "Glycine N-methyltransferase (Homo sapiens)", 0],
  ["CN1C(=O)c2cc(C(=O)NCCc3cccs3)nn2CC1(C)C(=O)NCc1ccc(F)cc1 (stereo not given)", "Glycine N-methyltransferase (Homo sapiens)", 3.48],
  ["CC1(C(=O)NC2CCCCC2)Cn2c(ccc2-c2ccccc2)C(=O)N1CCC1=CCCCC1 (stereo not given)", "Glycine N-methyltransferase (Homo sapiens)", 9.19]
]}

---

Experimental System: Histamine N-methyltransferase (Homo sapiens) (UniProt P50135)
Sequence (P50135 whole entry, looked up): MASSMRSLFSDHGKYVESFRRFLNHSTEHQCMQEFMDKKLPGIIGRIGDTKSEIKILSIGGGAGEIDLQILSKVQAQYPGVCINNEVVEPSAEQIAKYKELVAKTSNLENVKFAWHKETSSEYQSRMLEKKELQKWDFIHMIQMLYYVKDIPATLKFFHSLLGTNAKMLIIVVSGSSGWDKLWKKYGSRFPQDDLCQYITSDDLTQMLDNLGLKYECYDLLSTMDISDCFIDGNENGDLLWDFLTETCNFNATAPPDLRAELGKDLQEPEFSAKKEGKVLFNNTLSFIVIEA
Method Notes: Primary Screen for Target Class Profiling of Small Molecule Inhibitors of Methyltransferases; also: % is scaled to controls: 0 for no effect and ±100 for the full control effect
Measurement Parameters: purified enzyme, MTase-Glo SAH luminescence; measured here: HNMT inhibition; at 40 µM; stronger effect = lower value
The whole screen tested about 25,000 compounds, of which about 970 (3.9%) were called active. Not shown: some 8% with an inconclusive outcome. Shown is part of a subset that was picked to be rich in actives.
Property Measured: activity change, negative = inhibition (%)

{"columns": ["Compound", "Experimental System", "Observed Result"],
 "data": [
  ["COc1ccccc1CN1C(=O)c2cc3sccc3n2CC1(C)C(=O)NC1CCCC(C)C1C (centres undefined)", "Histamine N-methyltransferase (Homo sapiens) (UniProt P50135)", 3.67],
  ["O=C1Nc2ccc(O)cc2O[C@H]1O[C@@H]1O[C@H](CO)[C@@H](O)[C@H](O)[C@H]1O", "Histamine N-methyltransferase (Homo sapiens) (UniProt P50135)", 2.99],
  ["C/C=C\\NC(=O)C1NC(=O)C(CC(N)=O)NC(=O)C(NC(=O)C(=O)C(C)CC)Cc2ccc(O)c(c2)-c2cccc3c2NC(=O)C3(O)C1O (centres undefined)", "Histamine N-methyltransferase (Homo sapiens) (UniProt P50135)", -0.643],
  ["COc1ccc(S(=O)(=O)N2CCCCC2c2n[nH]c(C)n2)cc1 (centres undefined)", "Histamine N-methyltransferase (Homo sapiens) (UniProt P50135)", 11.2],
  ["O=C(CCc1nnc2n(Cc3ccc(Cl)cc3)c(=O)c3ccccc3n12)N1CCN(c2ccccc2F)CC1", "Histamine N-methyltransferase (Homo sapiens) (UniProt P50135)", -1.5],
  ["O=C(Cn1nc2n(Cc3ccc(F)cc3)c(=O)c3ccccc3n2c1=O)c1cccc(Cl)c1", "Histamine N-methyltransferase (Homo sapiens) (UniProt P50135)", 7.94],
  ["Cc1nonc1OCCn1ccnc1-c1cn(C2CCNCC2)nn1", "Histamine N-methyltransferase (Homo sapiens) (UniProt P50135)", -2.48],
  ["O=C(N[C@@H]1CN(C2CCOCC2)CC[C@@H]1CO)c1ccccc1", "Histamine N-methyltransferase (Homo sapiens) (UniProt P50135)", -6.52],
  ["CC(C)Cn1c(=O)c2ccccc2n2c(CCC(=O)N3CCN(c4cccc(Cl)c4)CC3)nnc12", "Histamine N-methyltransferase (Homo sapiens) (UniProt P50135)", -10.4],
  ["CCn1ccnc1CN(C)C(=O)c1cc(COc2ccccc2F)[nH]n1", "Histamine N-methyltransferase (Homo sapiens) (UniProt P50135)", -1.52],
  ["COc1ccc(-c2nc3ccncc3[nH]2)cc1", "Histamine N-methyltransferase (Homo sapiens) (UniProt P50135)", -91.6],
  ["COc1ccccc1CNC(=O)c1nn(CC2CC2)c2c1CNCC2", "Histamine N-methyltransferase (Homo sapiens) (UniProt P50135)", -9.87],
  ["COc1ccc(CN2C(=O)c3ccc(-c4ccco4)n3CC2(C)C(=O)NC2CCCCCC2)cc1 (centres undefined)", "Histamine N-methyltransferase (Homo sapiens) (UniProt P50135)", -7.66],
  ["CC(C)CCn1c(=O)c2ccc(C(=O)NC(C)C)cc2n2c(=O)n(CC(=O)Nc3ccccc3)nc12", "Histamine N-methyltransferase (Homo sapiens) (UniProt P50135)", -0.014],
  ["COC(=O)[C@]12C(=O)C(C)=C(O)[C@@]1(C)C(C)=CC1[C@@]34CC[C@@H](OC(C)=O)C(C)(C)C3[C@H](C[C@]12C)OC4=O (some centres undefined)", "Histamine N-methyltransferase (Homo sapiens) (UniProt P50135)", 9.8],
  ["CC1CCN(S(=O)(=O)c2ccc3c(ccn3CCC(=O)N3CCN(c4ccccn4)CC3)c2)CC1", "Histamine N-methyltransferase (Homo sapiens) (UniProt P50135)", -2.6],
  ["COc1ccccc1CCN1C(=O)c2ccc(-c3ccco3)n2CC1(C)C(=O)NC1CCCCCC1 (centres undefined)", "Histamine N-methyltransferase (Homo sapiens) (UniProt P50135)", -1.27],
  ["COc1ccccc1NC(=O)CSc1nnc2[nH]c(=O)c(C(C)(C)C)nn12", "Histamine N-methyltransferase (Homo sapiens) (UniProt P50135)", 5.75],
  ["CCCS(=O)(=O)NCC1Cn2cccc2C(=O)N1CCOC (centres undefined)", "Histamine N-methyltransferase (Homo sapiens) (UniProt P50135)", 0.026]
]}

---

Experimental System: Phenylethanolamine N-methyltransferase (Homo sapiens) (UniProt P11086)
Sequence (P11086 whole entry, looked up): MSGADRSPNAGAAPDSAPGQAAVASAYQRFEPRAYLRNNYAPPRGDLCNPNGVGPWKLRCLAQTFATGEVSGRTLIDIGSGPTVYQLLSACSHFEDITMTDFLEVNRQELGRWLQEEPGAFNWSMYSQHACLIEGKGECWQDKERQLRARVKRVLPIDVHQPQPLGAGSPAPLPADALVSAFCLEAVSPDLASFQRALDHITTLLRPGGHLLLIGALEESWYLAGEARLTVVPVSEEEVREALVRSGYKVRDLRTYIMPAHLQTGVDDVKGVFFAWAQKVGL
Method Notes: Primary Screen for Target Class Profiling of Small Molecule Inhibitors of Methyltransferases; also: % is scaled to controls: 0 for no effect and ±100 for the full control effect
Measurement Parameters: purified enzyme, MTase-Glo SAH luminescence; measured here: PNMT inhibition; at 40 µM; stronger effect = lower value
Experimental: PI: Matthew D. Hall Ph.D. and Quinlin M. Hanson Ph.D. National Center for Advancing Translational Sciences (NCATS) National Institute of Health (NIH), Rockville, MD […] High-through put screening assays were developed at the National Center for Advancing Translational Science (NCATS) for the enzymes NNMT, PNMT, HNMT, GNMT, COMT, and GAMT. Enzymatic activity was measured as a function of SAM cofactor conversion using the MTase Glo kit (Promega) for all enzymes. […]
About 970 (3.9%) of roughly 25,000 compounds were called active. Not shown: some 8% with an inconclusive outcome. Shown is part of a subset that was picked to be rich in actives.
Property Measured: activity change, negative = inhibition (%)

{"columns": ["Compound", "Experimental System", "Readout Unit", "Observed Result"],
 "data": [
  ["NCCCC(=O)N1CCN(C2CCNCC2)C(=O)C1", "Phenylethanolamine N-methyltransferase (Homo sapiens) (UniProt P11086)", "%", 0.025],
  ["O=C(NCc1cc2n(n1)CCCN(C1CCCCC1)C2)c1cccc(F)c1", "Phenylethanolamine N-methyltransferase (Homo sapiens) (UniProt P11086)", "%", 3.54],
  ["CC(C)Cn1c(=O)c2ccccc2n2c(=O)n(Cc3ccccc3)nc12", "Phenylethanolamine N-methyltransferase (Homo sapiens) (UniProt P11086)", "%", 0.863],
  ["Cn1nccc1C(=O)N1CCC(Cc2nc(C3CC3)n[nH]2)C1 (stereo unspecified)", "Phenylethanolamine N-methyltransferase (Homo sapiens) (UniProt P11086)", "%", -4.14],
  ["C[C@@H]1C[C@H]2O[C@@]3(O[C@@H]2C(C)(C)O)C(O)[C@@]2(C)C4CCC5C(C)(C)[C@@H](O[C@H]6OC[C@H](O)[C@@H](O)[C@@H]6O)CC[C@@]56C[C@@]46CC[C@]2(C)C13 (stereo partly specified)", "Phenylethanolamine N-methyltransferase (Homo sapiens) (UniProt P11086)", "%", -0.709],
  ["CCOc1ccccc1CN1CCC(Cc2nc(-c3cccnc3)n[nH]2)C1 (stereo unspecified)", "Phenylethanolamine N-methyltransferase (Homo sapiens) (UniProt P11086)", "%", -12.9]
]}
